Where do the numbers come from? From paper PMC12660843.

ASSAYED_TARGET: T1, 3-pHis peptide (Biotin-AminocaproicAcid-A.G.A.G.H.A.G.A.G phosphorylated by phosphoramidate)
T1 construct: His-peptide, phosphorylated on His5; the phosphoramidate reaction gives a mixture of non-phosphorylated, 1-pHis, 3-pHis and di-pHis peptide; also called Biotinylated ACLYana-3-pHis; ACLYana-pHis; source: synthetic peptide, phosphorylated with potassium phosphoramidate; not shown: biotin, N-terminal, kept
T1 peptide: {Biotin-Ahx}-AGAG[3‑pHis]AGAG
ASSAY_REMARKS: BLI; Octet RED96e; biotinylated peptides captured on streptavidin biosensors at 20 nM; Fab in solution, 20-200 nM; 1x HBS-T, 1% BSA
TEST_READOUT: koff (s⁻¹)
Answers are plain numbers, in s⁻¹.

BINDER: hSC44 Fab (Fab, V domains shown) VH: EVQLVESGGGLVQPGGSLRLSCTASGFSIDSYGFSWVRQAPGKGLEHIGYLTAGGRAFYASWAKSRSTITRNTNENTVTLKMNSLRAEDTAVYYCAKLGSGNPVAIWGQGTLVTVSS VL: DIQMTQSPSSLSASVGDRVTITCRASQSVWRNKNVAWYQQKPGKAPKRLIYAIASLYSGVPSRFSGSGSGTDFTLTISSLQPEDFATYYCVGHYGSENDAYYAFGQGTKVEIK
koff (s⁻¹): 0.00235
--
BINDER: hSC44.20 Fab (Fab, V domains shown) VH: EVQLVESGGGLVQPGGSLRLSCTASGFSIDSYGFSWVRQAPGKGLEHIGYLTAGGRAFYASWAKSRSTITRNTNENTVTLKMNSLRAEDTAVYYCAKLGTGSRFAIWGQGTLVTVSS VL: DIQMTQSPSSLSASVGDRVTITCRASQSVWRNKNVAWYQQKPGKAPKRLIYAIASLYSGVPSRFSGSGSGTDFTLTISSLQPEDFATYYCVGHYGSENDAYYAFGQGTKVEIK
koff (s⁻¹): 0.0042
--
BINDER: hSC44.20.N32F^L Fab (Fab, V domains shown) VH: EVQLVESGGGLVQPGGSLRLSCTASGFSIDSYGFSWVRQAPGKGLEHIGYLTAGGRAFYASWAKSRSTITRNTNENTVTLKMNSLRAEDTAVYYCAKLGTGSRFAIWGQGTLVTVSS VL: DIQMTQSPSSLSASVGDRVTITCRASQSVWRNKFVAWYQQKPGKAPKRLIYAIASLYSGVPSRFSGSGSGTDFTLTISSLQPEDFATYYCVGHYGSENDAYYAFGQGTKVEIK
koff (s⁻¹): 0.000697

Any idea what koff was measured for rSC44 Fab (Fab, V domains shown) VH: QSVKESGRGLVQPGGSLTLTCTASGFSIDSYGFSWVRQAPGKGLEHIGYLTAGGRAFYASWAKSRSTITRNTNENTVTLKMTSLTAADTATYFCAKLGSGNPVAIWGPGTLVTVSS VL: QVLTQTPSFTSAAVGGTVTINCQSSQSVWRNKNLAWYQQKPGQPPKRLIYAIATLDSGVPSRFSGSGSGTQFTLTISDVQCDDAATYYCVGHYGSENDAYYAFGGGTEVVVK ? 0.00591
